- System: LOX IMVI melanoma
- method: NCI tumour cell line growth inhibition, 48 h
// values below are reported GI50
readout label: GI50

>>> df
                                   compound    measured_target  measured_value
0         CCCNc1nc(-c2ccc(OC)cc2)nc2ccccc12  LOX IMVI melanoma        18400 nM
1  C=C1C(=O)O[C@H]2[C@H]1CC/C(Cn1cc(CCC)nn1)=C\CC[C@@]1(C)O[C@@H]21  LOX IMVI melanoma         3900 nM
2  CCOc1ccc2c(c1)/C(=C\C=C\C1CC(C)C3CC(OCC)CCC3N1CC)CC(C)N2CC (configuration not stated)  LOX IMVI melanoma          871 nM
3  Cc1ccc(/C=C(\C#N)n2nnc3cc(F)c(F)cc32)cc1  LOX IMVI melanoma         2880 nM
4             Oc1ccc2ccccc2c1/C=N\Nc1ccccn1  LOX IMVI melanoma          275 nM
5  CN(C)/[N+]([O-])=N/Oc1cc(Nc2ccc(C(=O)O)cc2)c([N+](=O)[O-])cc1[N+](=O)[O-]  LOX IMVI melanoma        19000 nM
6  COc1ccccc1Nc1nc(-c2cc3cccc(C(F)(F)F)c3oc2=O)cs1  LOX IMVI melanoma          140 nM

---

- Tested on: CAKI-1 renal
- method: NCI tumour cell line growth inhibition, 48 h
readout label: TGI

In [3]: df
Out[3]:
                                    compound  measured_target  measured_value
 0  Cc1c2c(nn1-c1ccc(S/N=C3\SCC(=O)CN3c3ccccc3)cc1)-c1ccccc1CC2     CAKI-1 renal         > 50 µM
 1         Cc1nc2c(=O)[nH]c(=O)nc-2n(CCO)c1C     CAKI-1 renal        > 100 µM
 2  CN(C)CCn1cc(-c2ccc3c(Nc4ccc(CC(=O)Nc5cccc(F)c5)cc4)ncnc3c2)cn1     CAKI-1 renal          3.4 µM
 3  O=C1/C(=C/c2ccc(O)cc2)CCC1CNc1ccc(Cl)cc1 (stereo unspecified)     CAKI-1 renal         8.84 µM
 4  C=C1C(=O)O[C@H]2C1C[C@@H](O)[C@@]1(C)OC1CC[C@@]1(C)O[C@H]21 (stereo partly specified)     CAKI-1 renal         34.1 µM
 5  CCCCOC(=O)N[C@H]1CCc2cc(OC)c(OC)c(OC)c2-c2ccc(SC)c(=O)cc21     CAKI-1 renal         25.6 µM
 6    Cn1c2ccccc2n2c(=O)c(-c3ccc(O)cc3)nnc12     CAKI-1 renal        > 100 µM
 7  S=C1c2cc(Cl)ccc2NC(=NC2CCCC2)C2CSCN12 (stereo unspecified)     CAKI-1 renal        > 100 µM
 8  CCN1C(=O)N(c2c(F)c(OC)cc(OC)c2F)Cc2cnc3[nH]c(CN4CCOCC4)cc3c21     CAKI-1 renal        > 100 µM
 9  O=C(/C=N/O)c1c(-c2ccccc2)[nH]c(-c2ccccc2)c1-c1ccccc1     CAKI-1 renal         48.1 µM
10  COc1cc(/C=C/C(=O)c2ccc(Nc3nc(Nc4ccc(F)cc4)nc(Nc4ccc(F)cc4)n3)cc2)cc(OC)c1OC     CAKI-1 renal        > 100 µM
11  CCCCCCCCCCCCCC(=O)OCC1OC(OC)C(NC(=O)N(CCCl)N=O)C(O)C1O (stereo unspecified)     CAKI-1 renal        > 100 µM
12          COc1cccc(-n2nnc3c(N)nc(N)nc32)c1     CAKI-1 renal        > 100 µM
13             Oc1ccc2ccccc2c1/C=N\Nc1ccccn1     CAKI-1 renal        0.678 µM
14        c1ccc(/C(=N/Nc2cnccn2)c2ncccn2)cc1     CAKI-1 renal        > 100 µM
15  CCOC(=O)c1ccc(N=C/C=C(\Nc2ccc(C(=O)OCC)cc2)c2ccc3ccccc3c2)cc1     CAKI-1 renal         83.8 µM
16                            NC(=O)NC(=O)CI     CAKI-1 renal         5.51 µM
17  Cc1cc(Cl)ccc1NC(=O)C1C(=O)N(c2ccc(Cl)cc2C)C(=O)/C1=N\N (stereo unspecified)     CAKI-1 renal        > 100 µM
18  CCN(CC)P1(=S)Oc2ccc3ccccc3c2-c2c(ccc3ccccc23)O1     CAKI-1 renal        > 100 µM
19  C[C@H](NC(=O)OC1C2C=CC(O)C1CC2)c1ccccc1 (stereo partly specified)     CAKI-1 renal        > 100 µM
20  O=[N+]([O-])c1ccccc1S(=O)(=O)N1CCCc2cc(Cl)ccc21     CAKI-1 renal        > 100 µM
